study_target: Fibroblast growth factor receptor 3 (Homo sapiens) (UniProt P22607)
Sequence (P22607 23-806 limits assumed): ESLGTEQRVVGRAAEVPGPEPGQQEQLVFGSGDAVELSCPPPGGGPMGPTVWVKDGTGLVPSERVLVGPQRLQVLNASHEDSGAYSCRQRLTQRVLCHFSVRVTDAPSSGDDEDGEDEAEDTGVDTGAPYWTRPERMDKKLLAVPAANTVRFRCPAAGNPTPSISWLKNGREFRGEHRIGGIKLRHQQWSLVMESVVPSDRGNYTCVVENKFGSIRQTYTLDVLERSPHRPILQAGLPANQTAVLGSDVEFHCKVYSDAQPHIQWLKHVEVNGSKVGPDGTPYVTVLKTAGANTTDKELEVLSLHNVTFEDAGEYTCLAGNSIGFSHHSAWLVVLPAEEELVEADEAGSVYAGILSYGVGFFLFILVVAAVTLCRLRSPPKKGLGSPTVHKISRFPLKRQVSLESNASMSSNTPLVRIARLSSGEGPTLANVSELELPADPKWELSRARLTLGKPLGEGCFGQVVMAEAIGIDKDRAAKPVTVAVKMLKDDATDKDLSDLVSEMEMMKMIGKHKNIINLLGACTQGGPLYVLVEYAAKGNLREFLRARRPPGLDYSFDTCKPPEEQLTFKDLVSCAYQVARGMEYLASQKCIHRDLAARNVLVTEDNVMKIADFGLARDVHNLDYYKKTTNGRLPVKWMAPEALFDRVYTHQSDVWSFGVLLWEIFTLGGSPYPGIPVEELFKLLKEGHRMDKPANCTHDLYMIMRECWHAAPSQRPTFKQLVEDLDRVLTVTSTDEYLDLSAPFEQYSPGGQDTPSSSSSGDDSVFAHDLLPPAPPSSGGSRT
protocol_conditions: Compound concentration 20.0 uM, Protein concentration 2.0 uM, Result type QC Liability
Description: Thermal Shift Assay. Domain: start/stop: P449-E759
# note: boundary value 1 °C maps to label 0; ΔTm below it maps to label 1

query: Threshold test, ΔTm < 1 °C: CCCCC[C@H](O)/C=C/[C@H]1[C@H](O)CC(=O)[C@@H]1CCCCCCC(=O)O
result: label 1

query: Threshold test, ΔTm < 1 °C: O=C(O)Cc1cc(I)c(Oc2ccc(O)c(I)c2)c(I)c1
result: label 1

* * *

study_target: Peregrin (Homo sapiens) (UniProt P55201)
Sequence (P55201 whole entry): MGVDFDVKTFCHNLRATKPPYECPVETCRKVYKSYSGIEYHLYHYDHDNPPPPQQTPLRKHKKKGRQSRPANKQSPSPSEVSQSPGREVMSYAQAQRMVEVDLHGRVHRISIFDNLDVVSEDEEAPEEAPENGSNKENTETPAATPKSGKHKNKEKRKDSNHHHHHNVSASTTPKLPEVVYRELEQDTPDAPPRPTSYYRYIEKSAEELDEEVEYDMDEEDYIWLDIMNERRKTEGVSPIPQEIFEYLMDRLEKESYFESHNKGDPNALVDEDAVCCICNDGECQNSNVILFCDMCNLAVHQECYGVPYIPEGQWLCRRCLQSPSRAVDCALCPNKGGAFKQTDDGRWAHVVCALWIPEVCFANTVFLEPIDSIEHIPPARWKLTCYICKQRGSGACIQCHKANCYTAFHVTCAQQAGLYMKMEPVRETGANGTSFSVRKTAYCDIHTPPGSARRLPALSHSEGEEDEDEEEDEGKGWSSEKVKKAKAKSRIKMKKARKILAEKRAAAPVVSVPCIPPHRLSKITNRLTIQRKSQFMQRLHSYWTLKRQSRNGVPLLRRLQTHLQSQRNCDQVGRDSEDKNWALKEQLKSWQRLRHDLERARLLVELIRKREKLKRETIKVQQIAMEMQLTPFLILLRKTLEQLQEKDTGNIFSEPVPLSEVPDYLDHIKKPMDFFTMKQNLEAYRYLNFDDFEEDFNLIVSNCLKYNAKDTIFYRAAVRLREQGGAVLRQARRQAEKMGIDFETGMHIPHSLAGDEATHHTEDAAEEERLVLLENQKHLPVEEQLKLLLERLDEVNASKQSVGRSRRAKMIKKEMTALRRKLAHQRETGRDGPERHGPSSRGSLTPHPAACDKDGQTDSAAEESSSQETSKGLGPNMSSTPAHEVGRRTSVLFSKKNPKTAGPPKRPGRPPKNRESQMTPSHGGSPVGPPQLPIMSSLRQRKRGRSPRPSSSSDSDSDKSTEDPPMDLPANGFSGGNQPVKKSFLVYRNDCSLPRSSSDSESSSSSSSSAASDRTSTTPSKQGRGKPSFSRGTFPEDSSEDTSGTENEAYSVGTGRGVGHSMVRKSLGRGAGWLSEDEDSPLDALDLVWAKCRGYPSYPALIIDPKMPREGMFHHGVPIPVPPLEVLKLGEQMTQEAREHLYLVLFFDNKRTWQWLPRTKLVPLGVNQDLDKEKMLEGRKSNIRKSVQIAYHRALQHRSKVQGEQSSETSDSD
protocol_conditions: Compound concentration 20.0 uM, Protein concentration 2.0 uM, Result type QC Liability
Numbered stars: 1 amine (or outer) side, 2 acyl side, 3 side chain; on linkers, the order of the positions; unused ones are H or OH. Bridge positions count the residues as written; N and C are the ends. Square brackets hold non-standard residues; d marks the D form. Peptide text beside a SMILES is read from it. I, II: the chains in the order shown. Hexamethylenediamine = C(CCCN[*:2])CCN[*:1]; Dip = N[C@H](C(=O)O)C(c1ccccc1)c1ccccc1; Chg = N[C@H](C(=O)O)C1CCCCC1; NMeA = CN[C@@H](C)C(=O)O
readout_label: ΔTm (°C)
Give a bare numeral; the unit °C is implied.

Here are 5 compounds together with their reported answers.
INSERT INTO measurements (compound, readout_label, result) VALUES
  ('COc1ccc(S(=O)(=O)N2CCOCC2)cc1Nc1ccc2c(n1)N(C1CCOCC1)[C@H](C)C(=O)N2C', 'ΔTm', 0.21),
  ('CN[C@@H](C)C(=O)N[C@H](C(=O)N1CCC[C@H]1C(=O)N[C@H](C(=O)NCCCCCCNC(=O)[C@@H](NC(=O)[C@@H]1CCCN1C(=O)[C@@H](NC(=O)[C@H](C)NC)C1CCCCC1)C(c1ccccc1)c1ccccc1)C(c1ccccc1)c1ccccc1)C1CCCCC1 (I: H-[NMeA][Chg]P[Dip] / II: H-[NMeA][Chg]P[Dip]; linker I:C-II:C via Hexamethylenediamine)', 'ΔTm', -2.83),
  ('Cc1nnc2n1-c1sc(CCC(=O)N3CCOCC3)cc1C(c1ccccc1Cl)=NC2', 'ΔTm', -2.21),
  ('COc1ncc(-c2cc(-c3ncc(CN4C[C@@H](C)O[C@@H](C)C4)o3)c3cn[nH]c3c2)cc1NS(C)(=O)=O', 'ΔTm', -0.2),
  ('O[C@]1(C(F)(F)F)CCCC[C@H]1Nc1ccc(F)cc1', 'ΔTm', 0.24);

Consider the record given below.
response.value for CCS(=O)(=O)Nc1cccc(Oc2cncc(Nc3ccc(I)cc3F)c2C(N)=O)c1 (field: ΔTm) = -2.79
